All values here come from paper PMC10814725.

Assay: in vitro
Assay type: cell-based
Conditions: mouse
outcome_measure: viability at 5 µM (%)

>  <molecule>
CC(=O)O[C@@H]1C[C@H]2C(C)(C)C(=O)C=C[C@]2(C)[C@H]2CC[C@]3(C)C(C(=O)C[C@H]3c3ccoc3)[C@@]21C (stereo partly drawn)

>  <unit_string>
%

>  <prefix_operator>
=

>  <observed>
96.2

$$$$
>  <molecule>
CC1(C)C(=O)C=CC2(C)C1=C(O)C(=O)C1(C)C2(O)C(O)CC2(C)C(c3ccoc3)CC3OC321 (stereo not drawn)

>  <unit_string>
%

>  <prefix_operator>
=

>  <observed>
77.5

$$$$
>  <molecule>
CC(=O)O[C@H]1[C@@H](O)[C@@]2(C)C3=CC[C@@H](c4ccoc4)[C@]3(C)CC[C@@H]2[C@@]2(C)C=CC(=O)C(C)(C)[C@H]12

>  <unit_string>
%

>  <prefix_operator>
=

>  <observed>
90.3

$$$$
>  <molecule>
CC(=O)O[C@@H]1C[C@H]2C(C)(C)C(=O)C=C[C@]2(C)[C@H]2CC[C@]3(C)C(=CC[C@H]3C3CCOC3=O)[C@@]21C (stereo partly drawn)

>  <unit_string>
%

>  <prefix_operator>
=

>  <observed>
92.8

$$$$
>  <molecule>
CC(=O)O[C@@H]1[C@H](O)[C@H]2C(C)(C)C(=O)C=C[C@]2(C)[C@H]2CC[C@]3(C)C(=CC[C@H]3c3ccoc3)[C@]12C

>  <unit_string>
%

>  <prefix_operator>
=

>  <observed>
93.8

$$$$
>  <molecule>
C[C@]12C3=CC[C@@H](C4=CC(O)OC4=O)[C@]3(C)CC[C@@H]1[C@@]1(C)C(=O)C=C[C@@]3(C)CO[C@@H]([C@H]2O)[C@H]13 (stereo partly drawn)

>  <unit_string>
%

>  <prefix_operator>
>

>  <observed>
99.9

$$$$
>  <molecule>
C[C@]12C3=CC[C@@H](c4ccoc4)[C@]3(C)CC[C@@H]1[C@@]1(C)C(=O)C=C[C@@]3(C)CO[C@@H]([C@H]2O)[C@H]13

>  <unit_string>
%

>  <prefix_operator>
>

>  <observed>
99.9

$$$$
>  <molecule>
CC(=O)O[C@H]1[C@@H](OC(C)=O)[C@@]2(C)C3=CC[C@@H](c4ccoc4)[C@]3(C)CC[C@@H]2[C@@]2(C)C=CC(=O)C(C)(C)[C@H]12

>  <unit_string>
%

>  <prefix_operator>
=

>  <observed>
83.6

$$$$
>  <molecule>
CC1(C)C(=O)C=C[C@]2(C)[C@H]3CC[C@]4(C)C(C(=O)C[C@H]4c4ccoc4)[C@]3(C)[C@H](O)C[C@@H]12 (stereo partly drawn) [Compound 1, 7α-hydroxyneotrichilenone]

>  <unit_string>
%

>  <prefix_operator>
>

>  <observed>
99.9

$$$$
>  <molecule>
CC(=O)O[C@@H]1C[C@]2(C)C(=CC[C@H]2c2ccoc2)[C@@]2(C)[C@H]1[C@@]1(C)C=CC(=O)C(C)(C)[C@@H]1C[C@H]2OC(C)=O

>  <unit_string>
%

>  <prefix_operator>
=

>  <observed>
90.1

$$$$
>  <molecule>
CC(=O)O[C@H]1[C@@H](OC(C)=O)[C@]2(C)[C@H](CC[C@@]3(C)[C@H](c4ccoc4)C(=O)[C@H]4O[C@@]423)[C@@]2(C)C=CC(=O)C(C)(C)[C@H]12

>  <unit_string>
%

>  <prefix_operator>
=

>  <observed>
93.2

$$$$
>  <molecule>
CC(=O)O[C@H]1[C@@H](OC(C)=O)[C@@]2(C)C3C(=O)C[C@@H](c4ccoc4)[C@]3(C)CC[C@@H]2[C@@]2(C)C=CC(=O)C(C)(C)[C@H]12 (stereo partly drawn)

>  <unit_string>
%

>  <prefix_operator>
>

>  <observed>
99.9

$$$$
>  <molecule>
CC(=O)O[C@H]1[C@@H](OC(C)=O)[C@]2(C)[C@H](CC[C@@]3(C)[C@H](c4ccoc4)C[C@H]4O[C@@]423)[C@@]2(C)C=CC(=O)C(C)(C)[C@H]12

>  <unit_string>
%

>  <prefix_operator>
=

>  <observed>
85

$$$$
>  <molecule>
CC1(C)C(=O)C=C[C@]2(C)[C@H]3CC[C@]4(C)C(=CC[C@H]4C4CCOC4=O)[C@]3(C)[C@H](O)C[C@@H]12 (stereo partly drawn)

>  <unit_string>
%

>  <prefix_operator>
=

>  <observed>
91.8

$$$$
>  <molecule>
CC(=O)O[C@@H]1C[C@H]2C(C)(C)C(=O)C=C[C@]2(C)[C@H]2CC[C@@]3(C)[C@H](c4ccoc4)C[C@H]4O[C@]43[C@@]21C [Compound 13, trichilenone acetate]

>  <unit_string>
%

>  <prefix_operator>
>

>  <observed>
99.9

$$$$
